test system: U251 CNS; assay: NCI-60 one-dose screen, 48 h (100 = growth as untreated, 0 = no growth, -100 = all killed); details: 10 µM unless noted
The panel holds about 83,000 compounds, 20% with a hit somewhere; the sample as a whole holds those more often.
endpoint_name: growth (%)
// return numeric value only (unit: %, not printed)

As a guide, the following entries are already answered.
>>> result("OC(c1ccccc1)C(NC(Cc1ccccc1)c1ccccc1)c1ccccc1 (stereo not given)")
86.4
>>> result("O=C(Nc1nc2ccc(F)cc2s1)c1cccnc1Nc1ccc(Cl)cc1Cl")
15.8
>>> result("CCOC(=O)c1c(C)nc2c(c1N)CC(=O)N2Cc1ccc(F)cc1")
91.2
>>> result("CN1CCN(c2ccc(-c3cnc4c(-c5csc6ccccc56)cnn4c3)cc2)CC1")
-87.3

Note: attention shifts to another entry.
## Input Recorded growth for O=[N+]([O-])c1ccc(Oc2nc(Nc3ccc(O[C@H]4CO[C@H]5[C@@H]4OC[C@@H]5O)c(Cl)c3)ncc2F)c(Cl)c1 with U251 CNS, please?
## Output 23.6
